Experiment notes: In vivo PK study in mice
Test context: mouse, plasma, oral; female BALB/c mice, 1 mg/kg intravenously / 3 mg/kg orally; read-out: F % (oral bioavailability)
Excerpt: Female BALB/c mice were used as assay animals to determine the blood concentration of the compound and evaluate the pharmacokinetic behavior after a single administration. Four healthy adult female BALB/c mice were selected, wherein 2 mice were in an intravenous injection group and 2 mice were in an oral group. The vehicle in the intravenous injection group was 5% DMSO+95% (20% HP-β-CD). […] The clear solution was filtered by a microporous membrane, and then ready for use. […]
Reported endpoint: bioavailability (%)

INSERT INTO assay_data (structure_notation, observed_measurement) VALUES
  ('Cc1cccc(CN2C(=O)c3nc(-c4nc(Nc5ccnn5C)ncc4C)sc3C2(C)C)n1', 62);
